For each entry below, report its binding signal value.
# Target Desc: RELA (p65) subunit of heterodimer;p52 subunit (Homo sapiens;Homo sapiens, UniProt Q04206;Q00653 1-307;4-332)
# Sequence (Q04206 1-307, chain 1 of 2): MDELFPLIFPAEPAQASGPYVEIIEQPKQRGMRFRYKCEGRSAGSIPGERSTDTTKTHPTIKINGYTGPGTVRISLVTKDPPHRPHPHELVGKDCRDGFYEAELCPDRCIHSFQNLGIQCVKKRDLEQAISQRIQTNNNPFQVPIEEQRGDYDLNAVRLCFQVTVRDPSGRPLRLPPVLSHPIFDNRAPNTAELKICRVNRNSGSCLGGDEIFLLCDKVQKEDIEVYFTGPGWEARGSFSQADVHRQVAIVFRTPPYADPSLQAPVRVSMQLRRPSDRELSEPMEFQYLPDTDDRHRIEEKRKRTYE
# Sequence (Q00653 4-332, chain 2 of 2): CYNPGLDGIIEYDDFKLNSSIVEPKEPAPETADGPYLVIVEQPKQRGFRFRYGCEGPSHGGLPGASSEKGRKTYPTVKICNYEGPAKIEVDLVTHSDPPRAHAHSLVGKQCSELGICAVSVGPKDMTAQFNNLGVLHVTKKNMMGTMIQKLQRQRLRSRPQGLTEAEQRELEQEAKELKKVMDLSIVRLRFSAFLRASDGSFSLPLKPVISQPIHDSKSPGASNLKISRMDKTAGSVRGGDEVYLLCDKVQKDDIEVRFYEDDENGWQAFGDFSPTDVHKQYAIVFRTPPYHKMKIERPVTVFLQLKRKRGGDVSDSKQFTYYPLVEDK
# Method Notes: protein binding microarray; high values mean tight binding
# Measurement Conditions: dsDNA, one strand shown
One number for each entry, in z-score.

Example entries begin here.
CAGGTTGTCCT ... -0.884
GAAATGACCCT ... -0.11
AAGGGGCTCCT ... 0.753
GAGAGCCCCCC ... 0.722

Give measured binding signal for every item shown.
1. GGATAGGTCCC
2. CAATAATCCCT
3. GGGATGCCCCT

-0.141
0.493
2.07
